DC50 values by entry
- Assayed target: Protein cereblon/3-hydroxy-3-methylglutaryl-coenzyme A reductase (Cricetulus griseus, UniProt P00347+G3H338)
- Sequence (P00347 whole entry): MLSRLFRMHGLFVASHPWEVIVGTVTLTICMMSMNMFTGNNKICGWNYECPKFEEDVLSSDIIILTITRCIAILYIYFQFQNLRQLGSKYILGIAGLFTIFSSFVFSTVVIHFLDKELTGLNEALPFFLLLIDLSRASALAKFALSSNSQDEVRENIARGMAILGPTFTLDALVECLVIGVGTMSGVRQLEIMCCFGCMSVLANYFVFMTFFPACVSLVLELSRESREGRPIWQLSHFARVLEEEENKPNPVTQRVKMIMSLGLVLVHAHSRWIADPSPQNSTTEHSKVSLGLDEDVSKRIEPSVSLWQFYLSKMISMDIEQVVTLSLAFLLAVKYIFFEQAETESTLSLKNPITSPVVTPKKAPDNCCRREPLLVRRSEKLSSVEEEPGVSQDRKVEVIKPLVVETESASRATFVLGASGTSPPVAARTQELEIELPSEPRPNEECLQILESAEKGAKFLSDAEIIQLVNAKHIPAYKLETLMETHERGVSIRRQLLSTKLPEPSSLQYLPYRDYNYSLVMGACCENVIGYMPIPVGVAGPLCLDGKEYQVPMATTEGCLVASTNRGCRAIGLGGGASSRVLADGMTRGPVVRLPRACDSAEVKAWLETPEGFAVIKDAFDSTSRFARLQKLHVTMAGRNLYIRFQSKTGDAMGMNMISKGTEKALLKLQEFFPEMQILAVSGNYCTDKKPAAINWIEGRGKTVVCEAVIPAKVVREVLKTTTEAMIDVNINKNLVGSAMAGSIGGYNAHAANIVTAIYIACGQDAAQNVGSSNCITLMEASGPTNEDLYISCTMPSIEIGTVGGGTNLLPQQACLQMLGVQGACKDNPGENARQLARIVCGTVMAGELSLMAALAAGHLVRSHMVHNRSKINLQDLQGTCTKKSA
- Sequence (G3H338 whole entry): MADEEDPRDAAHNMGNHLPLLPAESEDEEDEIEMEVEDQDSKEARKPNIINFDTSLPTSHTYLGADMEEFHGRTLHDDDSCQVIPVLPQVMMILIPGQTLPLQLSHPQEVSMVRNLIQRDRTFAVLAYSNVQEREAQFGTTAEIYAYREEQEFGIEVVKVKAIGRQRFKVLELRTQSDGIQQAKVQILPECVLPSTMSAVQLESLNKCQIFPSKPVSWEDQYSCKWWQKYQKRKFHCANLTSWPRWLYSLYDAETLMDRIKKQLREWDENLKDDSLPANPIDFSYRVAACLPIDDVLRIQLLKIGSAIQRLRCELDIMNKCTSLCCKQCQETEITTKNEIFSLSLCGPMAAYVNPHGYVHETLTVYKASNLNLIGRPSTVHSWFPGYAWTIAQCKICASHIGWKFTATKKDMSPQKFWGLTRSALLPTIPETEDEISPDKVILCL
- Experiment: Protac activity at CRBN/HMGCR in Insig-1/Insig-2 deficient Chinese hamster SRD15 cells assessed as induction of HMGCR degradation after 16 hrs by immunoblotting analysis

Reference set, count: 3
CCN1C(=O)CCC(N2C(=O)c3cccc(NCCOCCOCCOCCOCCn4cc(CCCOc5cccc(-c6c(C(=O)Nc7ccccc7)c(C(C)C)n(CC[C@@H](O)C[C@@H](O)CC(=O)O)c6-c6ccc(F)cc6)c5)nn4)c3C2=O)C1=O (stereo not given in full) :: > 3 µM
CC(C)c1c(C(=O)Nc2ccccc2)c(-c2cccc(OCCCCc3cn(CCOCCOCCNc4cccc5c4C(=O)N(C4CCC(=O)NC4=O)C5=O)nn3)c2)c(-c2ccc(F)cc2)n1CC[C@@H](O)C[C@@H](O)CC(=O)O (stereo not given in full) :: > 3 µM
CC(C)c1c(C(=O)Nc2ccccc2)c(-c2cccc(OCCCCc3cn(CCOCCOCCOCCNc4ccc5c(c4)C(=O)N(C4CCC(=O)NC4=O)C5=O)nn3)c2)c(-c2ccc(F)cc2)n1CC[C@@H](O)C[C@@H](O)CC(=O)O (stereo not given in full) :: > 3 µM

Challenge: Quick one: DC50 of CC(C)c1c(C(=O)Nc2ccccc2)c(-c2cccc(OCCCc3cn(CCCCCCOCC#Cc4cccc5c4CN(C4CCC(=O)NC4=O)C5=O)nn3)c2)c(-c2ccc(F)cc2)n1CC[C@@H](O)C[C@@H](O)CC(=O)O (stereo not given in full) ?
Response given: 0.2 µM

Challenge: Also check CC(C)c1c(C(=O)Nc2ccccc2)c(-c2cccc(OCCCCc3cn(CCOCCOCCOCCOCCOCCNc4cccc5c4C(=O)N(C4CCC(=O)NC4=O)C5=O)nn3)c2)c(-c2ccc(F)cc2)n1CC[C@@H](O)C[C@@H](O)CC(=O)O (stereo not given in full)
Response given: > 3 µM

====

- Assayed target: Protein cereblon/3-hydroxy-3-methylglutaryl-coenzyme A reductase (Cricetulus griseus, UniProt P00347+G3H338)
- Experiment: Protac activity at CRBN/HMGCR in Insig-1/Insig-2 deficient Chinese hamster SRD15 cells assessed as induction of HMGCR degradation after 16 hrs by immunoblotting analysis
Property: DC50 (nM)

Reference set, count: 5
CC(C)c1c(C(=O)Nc2ccccc2)c(-c2cccc(OCCCCc3cn(CCCCCCCNc4cccc5c4C(=O)N(C4CCC(=O)NC4=O)C5=O)nn3)c2)c(-c2ccc(F)cc2)n1CC[C@@H](O)C[C@@H](O)CC(=O)O (some centres undefined) :: 300
CC(C)c1c(C(=O)Nc2ccccc2)c(-c2cccc(OCCCc3cn(CCCCCCNc4cccc5c4C(=O)N(C4CCC(=O)NC4=O)C5=O)nn3)c2)c(-c2ccc(F)cc2)n1CC[C@@H](O)C[C@@H](O)CC(=O)O (some centres undefined) :: 400
CC(C)c1c(C(=O)Nc2ccccc2)c(-c2cccc(OCCCCc3cn(CCOCCOCCOCCOCCNc4cccc5c4C(=O)N(C4CCC(=O)NC4=O)C5=O)nn3)c2)c(-c2ccc(F)cc2)n1CC[C@@H](O)C[C@@H](O)CC(=O)O (some centres undefined) :: 400
CC(C)c1c(C(=O)Nc2ccccc2)c(-c2cccc(OCCCCCCc3cn(CCCCCCCNc4cccc5c4C(=O)N(C4CCC(=O)NC4=O)C5=O)nn3)c2)c(-c2ccc(F)cc2)n1CC[C@@H](O)C[C@@H](O)CC(=O)O (some centres undefined) :: 300
CC(C)c1c(C(=O)Nc2ccccc2)c(-c2cccc(OCCCc3cn(CCOCCOCCOCCOCCNc4cccc5c4C(=O)N(C4CCC(=O)NC4=O)C5=O)nn3)c2)c(-c2ccc(F)cc2)n1CC[C@@H](O)C[C@@H](O)CC(=O)O (some centres undefined) :: 100

P: CC(C)c1c(C(=O)Nc2ccccc2)c(-c2cccc(OCCCCCc3cn(CCOCCOCCOCCOCCNc4cccc5c4C(=O)N(C4CCC(=O)NC4=O)C5=O)nn3)c2)c(-c2ccc(F)cc2)n1CC[C@@H](O)C[C@@H](O)CC(=O)O (some centres undefined)
Q: CC(C)c1c(C(=O)Nc2ccccc2)c(-c2cccc(OCCCc3cn(CCCCCOCC#Cc4cccc5c4CN(C4CCC(=O)NC4=O)C5=O)nn3)c2)c(-c2ccc(F)cc2)n1CC[C@@H](O)C[C@@H](O)CC(=O)O (some centres undefined)
R: CC(C)c1c(C(=O)Nc2ccccc2)c(-c2cccc(OCCCc3cn(CCCCCCCNc4cccc5c4C(=O)N(C4CCC(=O)NC4=O)C5=O)nn3)c2)c(-c2ccc(F)cc2)n1CC[C@@H](O)C[C@@H](O)CC(=O)O (some centres undefined)
S: CC(C)c1c(C(=O)Nc2ccccc2)c(-c2cccc(OCCCCCc3cn(CCOCCOCCOCCNc4cccc5c4C(=O)N(C4CCC(=O)NC4=O)C5=O)nn3)c2)c(-c2ccc(F)cc2)n1CC[C@@H](O)C[C@@H](O)CC(=O)O (some centres undefined)
Challenge: # rank_down: sort by DC50, max first Return value: ordered labels per request.
Response given: S, P, Q, R

====

- Assayed target: Protein cereblon/3-hydroxy-3-methylglutaryl-coenzyme A reductase (Cricetulus griseus, UniProt P00347+G3H338)
- Experiment: Protac activity at CRBN/HMGCR in Insig-1/Insig-2 deficient Chinese hamster SRD15 cells assessed as induction of HMGCR degradation after 16 hrs by immunoblotting analysis
Property: DC50 (nM)

I: CC(C)c1c(C(=O)Nc2ccccc2)c(-c2cccc(OCCCc3cn(CCOCCOCCOCCOCCNc4ccc5c(c4)C(=O)N(C4CCC(=O)NC4=O)C5=O)nn3)c2)c(-c2ccc(F)cc2)n1CC[C@@H](O)C[C@@H](O)CC(=O)O (stereo not given in full)
II: CC(C)c1c(C(=O)Nc2ccccc2)c(-c2cccc(OCCCc3cn(CCOCCOCCOCCOCCOCCNc4cccc5c4C(=O)N(C4CCC(=O)NC4=O)C5=O)nn3)c2)c(-c2ccc(F)cc2)n1CC[C@@H](O)C[C@@H](O)CC(=O)O (stereo not given in full)
III: CC(C)c1c(C(=O)Nc2ccccc2)c(-c2cccc(OCCCc3cn(CCCCCOCCCc4cccc5c4CN(C4CCC(=O)NC4=O)C5=O)nn3)c2)c(-c2ccc(F)cc2)n1CC[C@@H](O)C[C@@H](O)CC(=O)O (stereo not given in full)
IV: CC(C)c1c(C(=O)Nc2ccccc2)c(-c2cccc(OCCCc3cn(CCCCCCOCCCc4cccc5c4CN(C4CCC(=O)NC4=O)C5=O)nn3)c2)c(-c2ccc(F)cc2)n1CC[C@@H](O)C[C@@H](O)CC(=O)O (stereo not given in full)
Challenge: Please order the records by their reported DC50, lowest number first. Return value: ordered labels per request.
Response given: II, I, IV, III

====

- Assayed target: Protein cereblon/3-hydroxy-3-methylglutaryl-coenzyme A reductase (Cricetulus griseus, UniProt P00347+G3H338)
- Experiment: Protac activity at CRBN/HMGCR in Insig-1/Insig-2 deficient Chinese hamster SRD15 cells assessed as induction of HMGCR degradation after 16 hrs by immunoblotting analysis
Property: DC50

CC(C)c1c(C(=O)Nc2ccccc2)c(-c2cccc(OCCCCCc3cn(CCOCCOCCOCCNc4ccc5c(c4)C(=O)N(C4CCC(=O)NC4=O)C5=O)nn3)c2)c(-c2ccc(F)cc2)n1CC[C@@H](O)C[C@@H](O)CC(=O)O (stereo partly drawn) :: > 3 µM
CC(C)c1c(C(=O)Nc2ccccc2)c(-c2cccc(OCCCc3cn(CCOCCOCCOCCNc4cccc5c4C(=O)N(C4CCC(=O)NC4=O)C5=O)nn3)c2)c(-c2ccc(F)cc2)n1CC[C@@H](O)C[C@@H](O)CC(=O)O (stereo partly drawn) :: > 3 µM

# next molecule below
Challenge: Quick one: DC50 of CC(C)c1c(C(=O)Nc2ccccc2)c(-c2cccc(OCCCc3cn(CCCCCCCOCCCc4cccc5c4CN(C4CCC(=O)NC4=O)C5=O)nn3)c2)c(-c2ccc(F)cc2)n1CC[C@@H](O)C[C@@H](O)CC(=O)O (stereo partly drawn) ?
Response given: 0.6 µM

====

- Assayed target: Protein cereblon/3-hydroxy-3-methylglutaryl-coenzyme A reductase (Cricetulus griseus, UniProt P00347+G3H338)
- Experiment: Protac activity at CRBN/HMGCR in Insig-1/Insig-2 deficient Chinese hamster SRD15 cells assessed as induction of HMGCR degradation after 16 hrs by immunoblotting analysis
DC50 values by entry

CC(C)c1c(C(=O)Nc2ccccc2)c(-c2cccc(OCCCCCc3cn(CCOCCOCCOCCOCCNc4ccc5c(c4)C(=O)N(C4CCC(=O)NC4=O)C5=O)nn3)c2)c(-c2ccc(F)cc2)n1CC[C@@H](O)C[C@@H](O)CC(=O)O (stereo partly drawn) :: > 3 µM
CC(C)c1c(C(=O)Nc2ccccc2)c(-c2cccc(OCCCc3cn(CCCOCCCc4cccc5c4CN(C4CCC(=O)NC4=O)C5=O)nn3)c2)c(-c2ccc(F)cc2)n1CC[C@@H](O)C[C@@H](O)CC(=O)O (stereo partly drawn) :: > 3 µM

Challenge: Quick one: DC50 of CC(C)c1c(C(=O)Nc2ccccc2)c(-c2cccc(OCCCCCc3cn(CCOCCOCCNc4cccc5c4C(=O)N(C4CCC(=O)NC4=O)C5=O)nn3)c2)c(-c2ccc(F)cc2)n1CC[C@@H](O)C[C@@H](O)CC(=O)O (stereo partly drawn) ?
Response given: > 3 µM
